# SUBJECT_OF_TEST: Solute carrier family 2, facilitated glucose transporter member 1 (Homo sapiens) (UniProt P11166)
# Sequence (P11166 whole entry): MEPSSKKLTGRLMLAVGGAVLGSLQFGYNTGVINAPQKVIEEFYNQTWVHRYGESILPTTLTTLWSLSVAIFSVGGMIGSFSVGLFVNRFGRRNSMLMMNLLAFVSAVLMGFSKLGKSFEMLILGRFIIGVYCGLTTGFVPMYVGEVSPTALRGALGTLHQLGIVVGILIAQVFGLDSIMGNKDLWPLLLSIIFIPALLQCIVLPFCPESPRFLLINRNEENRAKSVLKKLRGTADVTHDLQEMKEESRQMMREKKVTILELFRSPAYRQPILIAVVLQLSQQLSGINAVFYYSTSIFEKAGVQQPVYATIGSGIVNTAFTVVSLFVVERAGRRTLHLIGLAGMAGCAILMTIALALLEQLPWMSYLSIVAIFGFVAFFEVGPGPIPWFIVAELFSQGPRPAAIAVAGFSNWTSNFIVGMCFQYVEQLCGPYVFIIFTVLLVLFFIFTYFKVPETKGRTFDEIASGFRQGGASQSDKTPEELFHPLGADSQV
# PROTOCOL: ST_JUDE_LEISH: Cytotoxicity at 2uM final concentration against transgenic Leishmania Mexicana promastigotes LmGLUT1 that are glucose transport deficient and complemented with the human glucose transporter GLUT1. Activity is measured by DNA content using SYBR green in vitro
# Assay type: functional
What inhibition was measured for each of the following?
Numbers only, in %.

CCOC(=O)c1cncc(/C=C/c2cc(C)cnc2N)c1 : 5.82
COc1ccccc1C1CCN(C2CCC(NC(=O)/C=C/c3cc(C(F)(F)F)ccc3F)CC2)CC1 (centres undefined) : 2.98
O=C(N[C@H]1CCN(Cc2ccc(OCCN3CCCC3)c3ccccc23)C1)c1ccc(Cl)c(Cl)c1 : 1.59
Oc1ccc(CCNc2nc(NCCOc3cccc4ccccc34)nc(N3CCNCC3)n2)cc1 : 3.36
c1ccc2sc(-c3csc(Nc4ccncc4)n3)nc2c1 : -1.14
N#Cc1cnc(Nc2ccc(Oc3ccccc3)cc2)nc1Nc1cccc(S(N)(=O)=O)c1 : -0.14
CC(C)C[C@H](NC(=O)c1cc(-c2ccc(C(C)(C)C)cc2)no1)C(=O)O.CC(C)C[C@H](NC(=O)c1conc1-c1ccc(C(C)(C)C)cc1)C(=O)O : 1.21
COc1ccc(C(=O)N[C@@H](CC(C)C)C(=O)N[C@H](/C=N/NC(=O)c2ccccc2)CCc2ccccc2)cc1OCCN1CCOCC1 : -0.43

Shifting focus to the compound that follows.
The compound listed as O=C(NCc1cccnc1)C(c1cc2ccccc2o1)N1CCN(C(c2ccccc2)c2ccccc2)CC1 (centres undefined) has a reported inhibition of 1.36

###

# SUBJECT_OF_TEST: Hexose transporter 1 (Plasmodium falciparum)
# PROTOCOL: ST_JUDE_LEISH: Cytotoxicity at 2uM final concentration against transgenic Leishmania Mexicana promastigotes LmPfHT that are glucose transport deficient and complemented with the Plasmodium falciparum hexose transporter. Activity is measured by DNA content using SYBR green in vitro
# Format: functional
REPORTED_ENDPOINT: inhibition (%)
Numbers only, in %.

Illustrative cases are given below, each with its answer.
Nc1cc(-c2ccc(Br)cc2O)nc2ccccc12 : 0.65
COc1ccc(-n2c(=O)c3c(n4c(SC(C)C)nnc24)-c2ccccc2CC32CCCCC2)cc1 : 1.21
O=C(Cc1c[nH]cn1)Nc1cccc(-c2ccc(-c3nc4cc(F)ccc4[nH]3)cc2)c1 : 10.1
Oc1ccc(CN2CCC(N3CCN(CCc4ccccc4)CC3)C(O)C2)cc1Cl (centres undefined) : -0.2
COc1cccc(NC(=O)c2ccc(NCCCN3CCC(C)CC3)c([N+](=O)[O-])c2)c1 : 41.7
C=CCOC(=O)N1CCC(CNCc2cccc(-c3ccc(-c4nc5cc(C(F)(F)F)ccc5[nH]4)cc3)c2)C1 (centres undefined) : 2.5

# batch: return inhibition for each of the 6 compounds below
1. CN1CCC(N2CCN(Cc3cccc(-c4ccc(-c5nc6ccccc6[nH]5)cc4)c3)CC2)CC1
2. O=C(Nc1ccc(-c2ccc(-c3nc4cc(C(F)(F)F)ccc4[nH]3)cc2)cc1)Nc1ccc(F)c(F)c1F
3. CC(=O)Nc1ccc(C(=O)Nc2ccc(-c3cccc(-c4nc5cc(C(F)(F)F)ccc5[nH]4)c3)cc2)cn1
4. NC(=O)C1CCN(Cc2ccc(-c3cccc(-c4nc5cc(F)ccc5[nH]4)c3)cc2)CC1
5. Oc1ccc(CC2CCCN(c3nc(NCCCOc4ccccc4-c4ccccc4)nc(N4CCNCC4)n3)C2)cc1 (centres undefined)
6. COc1cccc(CN2CCCC(CCC(=O)Nc3ccc(C(F)(F)F)cc3)C2)c1O (centres undefined)

1.99
-0.22
0.25
-0.57
-1.72
2.12

Reference source for all entries: ChEMBL document CHEMBL3433997
